Measured values drawn from patent US20150210761A1 for this set.

Consider the following binders; for each one, report its Kd.
target system: T1, recombinant hAng-2 (C-His, R&D Systems) (human, UniProt O15123 19-496)
T1 construct: Bought protein; Captured on an anti-His antibody chip for SPR; also called human Ang2; not shown: C-terminal His tag
T1 sequence: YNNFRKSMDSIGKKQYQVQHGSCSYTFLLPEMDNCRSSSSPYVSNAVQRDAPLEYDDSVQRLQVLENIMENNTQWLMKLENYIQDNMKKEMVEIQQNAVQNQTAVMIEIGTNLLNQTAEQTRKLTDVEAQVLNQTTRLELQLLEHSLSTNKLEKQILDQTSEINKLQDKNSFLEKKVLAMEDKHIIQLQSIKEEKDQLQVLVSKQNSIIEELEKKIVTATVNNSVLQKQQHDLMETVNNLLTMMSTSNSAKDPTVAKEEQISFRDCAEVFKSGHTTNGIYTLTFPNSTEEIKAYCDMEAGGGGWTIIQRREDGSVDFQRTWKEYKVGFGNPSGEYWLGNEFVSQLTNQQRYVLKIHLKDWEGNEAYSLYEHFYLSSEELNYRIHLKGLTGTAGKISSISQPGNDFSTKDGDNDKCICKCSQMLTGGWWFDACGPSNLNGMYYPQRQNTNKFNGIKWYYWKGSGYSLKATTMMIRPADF
test protocol: SPR, BIAcore T100; hAng-2 C-His captured on anti-His chip, antibody flowed
One number for each entry, in nM.

In the examples that follow, each entry is paired with its recorded Kd.
>>> quantitative_result("SAIT-ANG2-AB-m1A10 (antibody, V domains shown, also called hybridoma KCLRF-BP-00306) VH: QVQLQQSGAELMKPGASVKISCKATDYTFSSYWLEWLIQRPGHGLEWIGEILPGSGSTNYNEKFRGKATFTEDTSSNTAYMQLSSLTSEDSAVYYCARGNHNSYYYAMDYWGQGTSVTVSS VL: DIVLTQSPASLAVSLGQRATISCRASESVDSYGNSFMHWYQQKPGQPPKLLIYRASNLDSGIPARFSGSGSRTDFTLTINPVEADDVATYYCQQSNEDPLTFGAGTKLELK")
4.2
>>> quantitative_result("SAIT-ANG2-AB-m1B6 (antibody, V domains shown, also called hybridoma KCLRF-BP-00307) VH: QIQLVQSGPELKKPGETVKISCKASGYTFTNYGMNWVKQAPGKGLKWMGWINTYTGEPTYADDFKGRFAFSLETSASTAYLQINNLKNEDTATYFCARDHDGYLMDYWGQGTSVTVSS VL: DIQMTQTTSSLSASLGDRVTISCSTSQGISNYLNWYQQKPDGTVKLLIFYTSSLHSGVPSRFSGSGSGTDYSLTISNLEPEDIATYYCQQYSKLPYTFGGGTKLEIK")
2.3
>>> quantitative_result("SAIT-ANG2-AB-m3E2 (antibody, V domains shown, also called hybridoma KCLRF-BP-00305) VH: EVQLQQSGAELVKPGASVKLSCTASGFNIKDPYIHWVKQRPEQGLEWIGRIDPANGNTKYDPKFQGKATITADTSSNTAYLQLSSLTSEDTAVYYCVRRWDGGGFDYWGQGTSVTVSS VL: DIQMTQTTSSLSASLGDRVTISCRASQDISNYLNWYQQKPDGTVKLLIYYTSRLHSGVPSRFSGSGSGTDYSLTITNLEQEDIATYFCQQGNTLPWTFGGGTKLEIK")
1.3

Given item SAIT-ANG2-AB-m8D3 (antibody, V domains shown, also called hybridoma KCLRF-BP-00308) VH: EVQLQQSGPELVKPGDSVKMSCKASGYTFTDYYMKWVRQSHGKSLQWVGEINPKNGDTFYNQIFKGKATLTVDKSSSTAYMQLTSLTSEDSAVYYCTRENDYDVGFFDYWGQGTSVTVSS VL: TIVMTQTPKFLLVSAGDRITITCKASQSVSNDVAWYQQKPGQSPKLLIYYASNRYPGVPDRFTGSGYGTDFTFTISTVQAEDLAVYFCQQDYTSPWTFGGGTELEIK , the value recorded as its Kd is 4
